# TGI listing for each entry below
- System: CCRF-CEM leukemia
- protocolSummary: NCI tumour cell line growth inhibition, 48 h

>  <compound>
CC[CH2][Pb]([CH2]CC)([CH2]CC)[O]C(=O)C(F)(F)F

>  <targetDesc>
CCRF-CEM leukemia

>  <TGI>
0.775 µM

$$$$
>  <compound>
CC1=C2C(=O)NN=C2CCN1c1ccc(Br)cc1

>  <targetDesc>
CCRF-CEM leukemia

>  <TGI>
8.26 µM

$$$$
>  <compound>
O=C1c2cccc(NCCN=Cc3cc(O)ccc3O)c2C(=O)c2c(NCCN=Cc3cc(O)ccc3O)cccc21

>  <targetDesc>
CCRF-CEM leukemia

>  <TGI>
1.63 µM

$$$$
>  <compound>
COC1C(CN[N+](=O)CC2OC3OC(C)(C)OC3C2OC)OC2OC(C)(C)OC21 (stereo not drawn)

>  <targetDesc>
CCRF-CEM leukemia

>  <TGI>
> 100 µM

$$$$
>  <compound>
COc1ccc(-n2c(=O)c3[nH]cnc3n(-c3ccc(OC)cc3)c2=S)cc1

>  <targetDesc>
CCRF-CEM leukemia

>  <TGI>
> 100 µM

$$$$
>  <compound>
COc1ccc2ccc3c(c2c1)CN1CCc2cc(OC)c(OC)cc2C1C3 (stereo not drawn)

>  <targetDesc>
CCRF-CEM leukemia

>  <TGI>
> 100 µM

$$$$
>  <compound>
CC1(C)OCC(COC(=O)C=[N+]=[N-])O1 (stereo not drawn)

>  <targetDesc>
CCRF-CEM leukemia

>  <TGI>
> 100 µM

$$$$
>  <compound>
CN(C(=O)C12C3C4C1C1C2C3C41C(=O)C(C)(C)C)C(C)(C)C (stereo not drawn)

>  <targetDesc>
CCRF-CEM leukemia

>  <TGI>
> 100 µM

$$$$
>  <compound>
COc1ccc(OC)c(NC(=O)C(=O)C(C(C)=O)c2nc3ccc(Cl)cc3[nH]c2=O)c1 (stereo not drawn)

>  <targetDesc>
CCRF-CEM leukemia

>  <TGI>
> 5 µM

$$$$
>  <compound>
COC(=O)C(=O)C(C(=O)C=C(C)C)C(=O)C(=O)Nc1cc(C(F)(F)F)ccc1Cl (stereo not drawn)

>  <targetDesc>
CCRF-CEM leukemia

>  <TGI>
71.2 µM

$$$$
>  <compound>
CCCCNC1=C(C(=O)OCC)C(=O)CO1

>  <targetDesc>
CCRF-CEM leukemia

>  <TGI>
> 100 µM

$$$$
>  <compound>
CCNCCNc1cc(-c2ccc(C(=O)OC)cc2)c(C#N)c2nc3ccccc3n12

>  <targetDesc>
CCRF-CEM leukemia

>  <TGI>
3.55 µM

$$$$
>  <compound>
COCOC1/C=C/CCCCC2=C(C)C=C(C1)O2 (stereo not drawn)

>  <targetDesc>
CCRF-CEM leukemia

>  <TGI>
> 100 µM

$$$$
>  <compound>
C=C1CC(COc2cc(=O)oc3ccccc23)(c2ccccc2)OC1=O (stereo not drawn)

>  <targetDesc>
CCRF-CEM leukemia

>  <TGI>
2.26 µM

$$$$
>  <compound>
CC(C)CC(=O)[O-].CC(C)CC(=O)[O-].N.N.N.N.[Co+3].[O-][Cl+3]([O-])([O-])[O-]

>  <targetDesc>
CCRF-CEM leukemia

>  <TGI>
> 100 µM

$$$$
>  <compound>
C=C(CN1CCc2ccccc2C1)c1ccc(C(=O)Nc2cnccn2)cc1

>  <targetDesc>
CCRF-CEM leukemia

>  <TGI>
> 100 µM

$$$$
>  <compound>
COC(=O)CC(=O)C[P+](c1ccccc1)(c1ccccc1)c1ccccc1

>  <targetDesc>
CCRF-CEM leukemia

>  <TGI>
> 218 µM

$$$$
>  <compound>
NC(=O)N/N=C(\Cc1nc2ccc(Cl)cc2[nH]c1=O)C(=O)Nc1ccc(Cl)cc1Cl

>  <targetDesc>
CCRF-CEM leukemia

>  <TGI>
> 100 µM

$$$$
>  <compound>
CCOc1cc(NC(C)=O)ccc1C(=O)NNC(=O)c1ccccc1OC(C)=O

>  <targetDesc>
CCRF-CEM leukemia

>  <TGI>
> 100 µM

$$$$
>  <compound>
CCOc1cccc(/C=N/NC(=O)c2ccccc2Nc2ccnc(C(F)(F)F)c2)c1O

>  <targetDesc>
CCRF-CEM leukemia

>  <TGI>
> 31.4 µM

$$$$
>  <compound>
C=C(C(=O)C(=O)Oc1ccc(Cl)cc1)C(=O)c1ccc(C)cc1

>  <targetDesc>
CCRF-CEM leukemia

>  <TGI>
> 100 µM

$$$$
>  <compound>
CCOC(=O)C1Cc2[nH]c3ccccc3c2C(C)C1C (stereo not drawn)

>  <targetDesc>
CCRF-CEM leukemia

>  <TGI>
57.4 µM

$$$$
>  <compound>
O=C(O)CSc1nnc(COc2ccc(Cl)cc2)n1-c1ccccc1

>  <targetDesc>
CCRF-CEM leukemia

>  <TGI>
> 100 µM

$$$$
>  <compound>
CCN1c2ccccc2-n2c(C)nnc2-c2c1n[nH]c2-c1ccccc1

>  <targetDesc>
CCRF-CEM leukemia

>  <TGI>
55.4 µM

$$$$
>  <compound>
Cc1nc2c(sc(=S)n2-c2ccccc2)c2nc3ncccc3n12

>  <targetDesc>
CCRF-CEM leukemia

>  <TGI>
> 100 µM

$$$$
>  <compound>
Cn1cc(-c2cnc3ccc(NC(=O)Nc4ccc(F)c(Br)c4)cc3n2)cn1

>  <targetDesc>
CCRF-CEM leukemia

>  <TGI>
6.21 µM

$$$$
>  <compound>
CCOC(=O)NC(=O)c1cn(C2OC(COC(=O)CCCCCCCCC(=O)OCC3OC(n4cc(C(=O)NC(=O)OCC)c(=O)[nH]c4=O)C(O)C3O)C(O)C2O)c(=O)[nH]c1=O (stereo not drawn)

>  <targetDesc>
CCRF-CEM leukemia

>  <TGI>
> 100 µM

$$$$
>  <compound>
N.N.N.O=[N+]([O-])[O-].O=[N+]([O-])[O-].O=[N+]([O-])[O-].O=[N+]([O-])[O-].[Co+3]

>  <targetDesc>
CCRF-CEM leukemia

>  <TGI>
> 100 µM

$$$$
